value.type: IC50 (µM)
A number alone suffices; assume µM.

Considering O=C(CCCCCCC(=O)N[c-]1cccc1)NO.[Fe+2].c1cc[cH-]c1 [Compound 7, N^1-Hydroxy-N^8-ferrocenyloctanediamide] , its IC50 with UniProtKB Q13547 was recorded as 0.011

====

- subject.of.test: UniProtKB Q9UBN7
- Sequence (Q9UBN7 1-1215): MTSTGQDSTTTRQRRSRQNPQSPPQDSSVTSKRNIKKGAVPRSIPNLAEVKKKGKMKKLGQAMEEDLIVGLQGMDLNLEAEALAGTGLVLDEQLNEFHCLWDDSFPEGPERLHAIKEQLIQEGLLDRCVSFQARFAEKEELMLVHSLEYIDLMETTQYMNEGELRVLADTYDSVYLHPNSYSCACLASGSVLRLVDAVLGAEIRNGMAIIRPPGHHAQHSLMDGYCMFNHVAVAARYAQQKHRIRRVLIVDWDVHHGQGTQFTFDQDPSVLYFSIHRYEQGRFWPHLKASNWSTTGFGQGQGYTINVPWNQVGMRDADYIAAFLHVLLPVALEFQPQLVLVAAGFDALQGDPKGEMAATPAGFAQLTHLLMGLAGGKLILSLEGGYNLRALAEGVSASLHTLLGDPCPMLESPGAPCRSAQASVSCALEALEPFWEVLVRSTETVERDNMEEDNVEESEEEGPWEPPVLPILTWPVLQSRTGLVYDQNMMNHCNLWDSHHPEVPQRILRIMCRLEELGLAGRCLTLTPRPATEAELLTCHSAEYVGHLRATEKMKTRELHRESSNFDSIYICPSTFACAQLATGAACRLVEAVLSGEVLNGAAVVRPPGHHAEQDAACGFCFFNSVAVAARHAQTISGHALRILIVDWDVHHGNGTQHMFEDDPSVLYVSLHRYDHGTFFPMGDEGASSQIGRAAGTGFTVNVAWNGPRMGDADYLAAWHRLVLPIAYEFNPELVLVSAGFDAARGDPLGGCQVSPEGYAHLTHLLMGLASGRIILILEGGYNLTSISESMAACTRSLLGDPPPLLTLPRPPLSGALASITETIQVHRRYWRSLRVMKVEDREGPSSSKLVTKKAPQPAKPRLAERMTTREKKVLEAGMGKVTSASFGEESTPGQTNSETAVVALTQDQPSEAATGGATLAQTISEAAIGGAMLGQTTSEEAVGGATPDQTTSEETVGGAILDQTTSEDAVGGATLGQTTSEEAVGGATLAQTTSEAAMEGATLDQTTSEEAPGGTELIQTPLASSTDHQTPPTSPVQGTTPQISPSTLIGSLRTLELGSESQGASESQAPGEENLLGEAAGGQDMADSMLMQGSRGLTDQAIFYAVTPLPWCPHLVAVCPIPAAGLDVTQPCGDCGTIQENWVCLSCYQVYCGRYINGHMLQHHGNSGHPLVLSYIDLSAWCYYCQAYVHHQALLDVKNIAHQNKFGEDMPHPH
value.type: IC50 (nM)
A number alone suffices; assume nM.

response.value for O=C(CCCCCCC(=O)N[c-]1cccc1)NO.[Fe+2].c1cc[cH-]c1 [Compound 7, N^1-Hydroxy-N^8-ferrocenyloctanediamide] (field: IC50) = 0.8
